Source listed as ChEMBL document CHEMBL3232881.

Tested on: Plasmodium yoelii
Assay: Antimalarial activity against chloroquine, mefloquine and halofantrine-resistant Plasmodium yoelii infected in Swiss mouse assessed as mouse survival at 12 mg/kg, po for 4 days measured on day 28 relative to control
Assay type: functional
quantity_name: Activity (%)
The reply should be a number in %, with the unit left off.

Past entries and their recorded results:
> print(dat)
                           structure.string  observed.measurement
1  C[C@@H]1CC[C@H]2[C@@H](C)C(=O)N(/N=C/c3ccc(C(F)(F)F)cc3)[C@@H]3O[C@@]4(C)CC[C@@H]1[C@@]23OO4                   100
2  C[C@@H]1CC[C@H]2[C@@H](C)C(=O)N(NCc3ccc4c(c3)Cc3ccccc3-4)[C@@H]3O[C@@]4(C)CC[C@@H]1[C@@]23OO4                    40
3  C[C@@H]1CC[C@H]2[C@@H](C)C(=O)N(OCc3ccccc3F)[C@@H]3O[C@@]4(C)CC[C@@H]1[C@@]23OO4                     0
4  C[C@@H]1CC[C@H]2[C@@H](C)C(=O)N(NC(=O)c3ccc(C(F)(F)F)cc3)[C@@H]3O[C@@]4(C)CC[C@@H]1[C@@]23OO4                    20
5  C[C@@H]1CC[C@H]2[C@@H](C)C(=O)N(NC(=O)c3ccccc3)[C@@H]3O[C@@]4(C)CC[C@@H]1[C@@]23OO4                     0

Okay, next one:
Requested read-out Activity, target or system Plasmodium yoelii, entry "Cc1ccc(/C=N/N2C(=O)[C@H](C)[C@@H]3CC[C@@H](C)[C@@H]4CC[C@@]5(C)OO[C@]43[C@H]2O5)cc1"
100

----------
Tested on: Plasmodium yoelii
Test: Antimalarial activity against chloroquine, mefloquine and halofantrine-resistant Plasmodium yoelii infected in Swiss mouse assessed as suppression of parasitemia at 12 mg/kg, po for 4 days by microscopic analysis relative to control
Assay type: functional
As shown below, each of these compounds has a reported Activity value.
The reply should be a number in %, with the unit left off.

> print(dat)
                           structure.string    subject.of.test  observed.measurement
1  C[C@@H]1CC[C@H]2[C@@H](C)C(=O)N(NCc3ccc(C(F)(F)F)cc3)[C@@H]3O[C@@]4(C)CC[C@@H]1[C@@]23OO4  Plasmodium yoelii                   100
2  C[C@@H]1CC[C@H]2[C@@H](C)C(=O)N(OCc3ccc(-c4ccccc4)cc3)[C@@H]3O[C@@]4(C)CC[C@@H]1[C@@]23OO4  Plasmodium yoelii                   100

Okay, next one:
Requested read-out Activity, target or system Plasmodium yoelii, entry "C[C@@H]1CC[C@H]2[C@@H](C)C(=O)N(NCc3ccc(-c4ccccc4)cc3)[C@@H]3O[C@@]4(C)CC[C@@H]1[C@@]23OO4"
100

----------
As shown below, each of these compounds has a reported Activity value.
Test system: Plasmodium yoelii
Assay: Antimalarial activity against chloroquine, mefloquine and halofantrine-resistant Plasmodium yoelii infected in Swiss mouse assessed as mouse survival at 12 mg/kg, po for 4 days measured on day 28 relative to control
Assay type: functional
The reply should be a number in %, with the unit left off.

> print(dat)
                           structure.string  value.unit  observed.measurement
1  C[C@@H]1CC[C@H]2[C@@H](C)C(=O)N(OCc3ccccc3)[C@@H]3O[C@@]4(C)CC[C@@H]1[C@@]23OO4           %                    80
2  Cc1ccc(CNN2C(=O)[C@H](C)[C@@H]3CC[C@@H](C)[C@@H]4CC[C@@]5(C)OO[C@]43[C@H]2O5)cc1           %                     0

Okay, next one:
GET /values?readout=Activity&item= "C[C@@H]1CC[C@H]2[C@@H](C)C(=O)N(NCc3ccccc3)[C@@H]3O[C@@]4(C)CC[C@@H]1[C@@]23OO4"
0
